The measured values listed here are drawn from the supplement of paper PMC10567573.

B1: PCMTD2 (parent)
chain: FFIRTSDSFDKFDFCEPSFVTGNC

variants of: B1; assay: protein stability index of a GFP-peptide fusion (GPS, HEK-293T) (PSI 1-6); higher = more stable; details: c terminus: a fixed tail appended;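 note: lentivirally expressed fusions sorted by FACS into six bins by GFP to DsRed ratio, PSI derived from sequencing read proportions per bin multiplied by bin number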
Values of protein stability index greater than or equal to 2 map to T; values below map to F.

Exercise: Is protein stability index at least 2? Consider FFIRTSDSFDKFDFCEPSFVKGNC [T21K]
Solution: T

Exercise: Now consider FFIRTSDSFCKFDFCEPSFVTGNC [D10C] .
Solution: T

Exercise: Now consider FFIRTSKSFDKFDFCEPSFVTGNC [D7K] .
Solution: F

Exercise: Now consider FFIRTSDSFDKFDSCEPSFVTGNC [F14S] .
Solution: F
